# assay-text: Pharmacokinetics in female BALB/c nude mice bearing A375 xenografts, 1 day dosing (PK and PD study): plasma, tumor and brain concentrations, AUC
# Format: in vivo
# experimental-context: mouse, plasma, po, 3 mg/kg, 3 mg/kg p.o. QD × 1 day; 36 h; read-out: Mean Concentration in Plasma ± SEM
measured-quantity: concentration at 36 h (ng/mL)
Give a bare numeral; the unit ng/mL is implied.

Exam item: Bench note: what concentration at 36 h did CCN(C)S(=O)(=O)Nc1ccc(F)c(Oc2ccc3ncn(C4CC5(CCN(C6CC7(C6)CN(c6cc8c(cc6F)c(N6CCC(=O)NC6=O)nn8C)C7)CC5)C4)c(=O)c3c2)c1C#N (stereo not shown) [Compound 141] show?
Marked response: 1.05
